Test system: colorectal tissue transcripts
Experiment: SAGE of normal, adenoma and cancer colorectal tissue (transcript tag counts)
Set-up: species or system human
Conditions: SAGE library CA2
REPORTED PROPERTY: CA2 (SAGE tag count)
Number only, please.

Consider the worked cases shown below.
ORDERED RESIDUES	RECORDED NUMBER
AATAGTTTCC (chemistry not fully specified)	1
GTGGGGGCGC (chemistry not fully specified)	0

**Query** Which measured CA2 (SAGE tag count) value corresponds to ATGTGGGCTC (chemistry not fully specified) ?
**Result** 0

**Query** Which measured CA2 (SAGE tag count) value corresponds to CTTCCAGCTA (chemistry not fully specified) ?
**Result** 19

**Query** Which measured CA2 (SAGE tag count) value corresponds to GCACCTGTCG (chemistry not fully specified) ?
**Result** 0

**Query** Which measured CA2 (SAGE tag count) value corresponds to GGAAGAGCAC (chemistry not fully specified) ?
**Result** 5

**Query** Which measured CA2 (SAGE tag count) value corresponds to CTGACCTGTG (chemistry not fully specified) ?
**Result** 46

---

System: colorectal tissue transcripts
Test: SAGE of normal, adenoma and cancer colorectal tissue (transcript tag counts)
Design: species or system human
Settings: SAGE library CA1
REPORTED PROPERTY: CA1 (SAGE tag count)

Consider the worked cases shown below.
ORDERED RESIDUES	TARGET	CA1 (SAGE tag count)
ACCCCCCCGC (chemistry not fully specified)	colorectal tissue transcripts	16
GCTGCCCTTG (chemistry not fully specified)	colorectal tissue transcripts	6
AGGCCAAGGG (chemistry not fully specified)	colorectal tissue transcripts	3
GCTCTTCCCC (chemistry not fully specified; the letters are possibly those of the target site)	colorectal tissue transcripts	2
ATGACGCTCA (chemistry not fully specified)	colorectal tissue transcripts	3

Please examine the following record next.
**Query** Which measured CA1 (SAGE tag count) value corresponds to AACGTGCAGG (chemistry not fully specified) ?
**Result** 7

---

Tested on: colorectal tissue transcripts
Assay: SAGE of normal, adenoma and cancer colorectal tissue (transcript tag counts)
Parameters: species or system human
Details: SAGE library AD1
AD1 (SAGE tag count) for assorted sequences

Consider the worked cases shown below.
ORDERED RESIDUES	AD1 (SAGE tag count)
GACATCAAGT (chemistry not fully specified)	23
ACCCCCCCGC (chemistry not fully specified)	7

**Query** Find AD1 (SAGE tag count) (colorectal tissue transcripts) for the entry CCTCCAGTAC (chemistry not fully specified)
**Result** 2

**Query** Find AD1 (SAGE tag count) (colorectal tissue transcripts) for the entry GGGCGCTGTG (chemistry not fully specified)
**Result** 3

**Query** Find AD1 (SAGE tag count) (colorectal tissue transcripts) for the entry GCCAGGTTGC (chemistry not fully specified)
**Result** 1

**Query** Find AD1 (SAGE tag count) (colorectal tissue transcripts) for the entry AACGTGCAGG (chemistry not fully specified)
**Result** 13

**Query** Find AD1 (SAGE tag count) (colorectal tissue transcripts) for the entry GCCTGGCCAT (chemistry not fully specified)
**Result** 4

**Query** Find AD1 (SAGE tag count) (colorectal tissue transcripts) for the entry CGTGGGTGGG (chemistry not fully specified)
**Result** 1

**Query** Find AD1 (SAGE tag count) (colorectal tissue transcripts) for the entry CCTCCAGCTA (chemistry not fully specified)
**Result** 142

**Query** Find AD1 (SAGE tag count) (colorectal tissue transcripts) for the entry CCAAAGCTAT (chemistry not fully specified)
**Result** 14

**Query** Find AD1 (SAGE tag count) (colorectal tissue transcripts) for the entry GGAAGAGCAC (chemistry not fully specified)
**Result** 1
